System: Enterovirus A71
Test: Antiviral activity against Human enterovirus 71 infected in human Hep2 cells at maximum non-cytotoxic concentration […] by plaque reduction assay
Format: functional, HEp-2
inhibition (INH) for assorted compounds
Number only, in %; omit the unit.

Worked examples follow.
Smiles Representation: O=c1c(/C=C/c2ccc(Cl)cc2)coc2ccccc12
inhibition (INH) / %: 21.6
--
Smiles Representation: Clc1ccc2c(c1)C=C(/C=C/c1ccccc1)CO2
inhibition (INH) / %: 30.8

Next compound, inhibition (INH) to be filled in.
The measured inhibition (INH) associated with C1=C(/C=C/C=C/c2ccccc2)COc2ccccc21 reads 29.5
